Reported IC50 (nM) Ca2+ assay (method 2) values are given for each entry in this list.
TESTED_TARGET: human CXCR4 (human, UniProt P61073 1-352)
Sequence (P61073 whole entry): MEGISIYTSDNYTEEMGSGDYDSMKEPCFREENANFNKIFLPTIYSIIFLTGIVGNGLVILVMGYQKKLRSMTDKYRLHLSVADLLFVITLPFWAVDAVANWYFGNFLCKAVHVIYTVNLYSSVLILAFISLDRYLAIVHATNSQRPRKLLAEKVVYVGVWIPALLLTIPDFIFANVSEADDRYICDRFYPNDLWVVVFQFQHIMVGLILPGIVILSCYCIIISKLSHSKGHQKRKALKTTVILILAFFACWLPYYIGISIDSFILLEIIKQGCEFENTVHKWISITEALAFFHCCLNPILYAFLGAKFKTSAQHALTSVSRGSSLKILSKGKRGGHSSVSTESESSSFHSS
METHOD: cell-based or functional assay
Bridges are numbered along the chain shown (N, C = ends). [ ]: non-standard residue; d: D form. 2Nal = N[C@@H](Cc1ccc2ccccc2c1)C(=O)O; Cit = NC(=O)NCCC[C@H](N)C(=O)O; Sar = CNCC(=O)O
QUANTITY_MEASURED: IC50 (nM) Ca2+ assay (method 2)

BINDER: cyclo(YRACRG[dP]RR[2Nal]CYQK[dP]P) (disulfide 4-11; SMILES C[C@@H]1NC(=O)[C@H](CCCNC(=N)N)NC(=O)[C@H](Cc2ccc(O)cc2)NC(=O)[C@@H]2CCCN2C(=O)[C@H]2CCCN2C(=O)[C@H](CCCCN)NC(=O)[C@H](CCC(N)=O)NC(=O)[C@H](Cc2ccc(O)cc2)NC(=O)[C@@H]2CSSC[C@H](NC1=O)C(=O)N[C@@H](CCCNC(=N)N)C(=O)NCC(=O)N1CCC[C@@H]1C(=O)N[C@@H](CCCNC(=N)N)C(=O)N[C@@H](CCCNC(=N)N)C(=O)N[C@@H](Cc1ccc3ccccc3c1)C(=O)N2) [Example 95]
QUANTITY_MEASURED: IC50 (nM) Ca2+ assay (method 2)
RECORDED_NUMBER: 2.9
--
BINDER: cyclo(WR[Cit]CRG[dP]RR[2Nal]CYQK[dP]P) (disulfide 4-11; SMILES N=C(N)NCCC[C@@H]1NC(=O)[C@@H]2CSSC[C@H](NC(=O)[C@H](Cc3ccc4ccccc4c3)NC(=O)[C@H](CCCNC(=N)N)NC(=O)[C@H](CCCNC(=N)N)NC(=O)[C@H]3CCCN3C(=O)CNC1=O)C(=O)N[C@@H](Cc1ccc(O)cc1)C(=O)N[C@@H](CCC(N)=O)C(=O)N[C@@H](CCCCN)C(=O)N1CCC[C@@H]1C(=O)N1CCC[C@H]1C(=O)N[C@@H](Cc1c[nH]c3ccccc13)C(=O)N[C@@H](CCCNC(=N)N)C(=O)N[C@@H](CCCNC(N)=O)C(=O)N2) [Example 66]
QUANTITY_MEASURED: IC50 (nM) Ca2+ assay (method 2)
RECORDED_NUMBER: 3.8
--
BINDER: cyclo(YR[Cit]CRG[dP]RRWCYQK[dP]P) (disulfide 4-11; SMILES N=C(N)NCCC[C@@H]1NC(=O)[C@@H]2CSSC[C@H](NC(=O)[C@H](Cc3c[nH]c4ccccc34)NC(=O)[C@H](CCCNC(=N)N)NC(=O)[C@H](CCCNC(=N)N)NC(=O)[C@H]3CCCN3C(=O)CNC1=O)C(=O)N[C@@H](Cc1ccc(O)cc1)C(=O)N[C@@H](CCC(N)=O)C(=O)N[C@@H](CCCCN)C(=O)N1CCC[C@@H]1C(=O)N1CCC[C@H]1C(=O)N[C@@H](Cc1ccc(O)cc1)C(=O)N[C@@H](CCCNC(=N)N)C(=O)N[C@@H](CCCNC(N)=O)C(=O)N2) [Example 108]
QUANTITY_MEASURED: IC50 (nM) Ca2+ assay (method 2)
RECORDED_NUMBER: 4.6
--
BINDER: cyclo(YRSCRG[dP]RRWCY[Cit]D[dP]P) (disulfide 4-11; SMILES N=C(N)NCCC[C@@H]1NC(=O)[C@@H]2CSSC[C@H](NC(=O)[C@H](Cc3c[nH]c4ccccc34)NC(=O)[C@H](CCCNC(=N)N)NC(=O)[C@H](CCCNC(=N)N)NC(=O)[C@H]3CCCN3C(=O)CNC1=O)C(=O)N[C@@H](Cc1ccc(O)cc1)C(=O)N[C@@H](CCCNC(N)=O)C(=O)N[C@@H](CC(=O)O)C(=O)N1CCC[C@@H]1C(=O)N1CCC[C@H]1C(=O)N[C@@H](Cc1ccc(O)cc1)C(=O)N[C@@H](CCCNC(=N)N)C(=O)N[C@@H](CO)C(=O)N2) [Example 102]
QUANTITY_MEASURED: IC50 (nM) Ca2+ assay (method 2)
RECORDED_NUMBER: 8
--
BINDER: cyclo(YH[Cit]CRG[dP]RRWCY[Cit]K[dP]P) (disulfide 4-11; SMILES N=C(N)NCCC[C@@H]1NC(=O)[C@@H]2CSSC[C@H](NC(=O)[C@H](Cc3c[nH]c4ccccc34)NC(=O)[C@H](CCCNC(=N)N)NC(=O)[C@H](CCCNC(=N)N)NC(=O)[C@H]3CCCN3C(=O)CNC1=O)C(=O)N[C@@H](Cc1ccc(O)cc1)C(=O)N[C@@H](CCCNC(N)=O)C(=O)N[C@@H](CCCCN)C(=O)N1CCC[C@@H]1C(=O)N1CCC[C@H]1C(=O)N[C@@H](Cc1ccc(O)cc1)C(=O)N[C@@H](Cc1c[nH]cn1)C(=O)N[C@@H](CCCNC(N)=O)C(=O)N2) [Example 105]
QUANTITY_MEASURED: IC50 (nM) Ca2+ assay (method 2)
RECORDED_NUMBER: 0.62
--
BINDER: cyclo(RRWCYRKCYKGYCYRKCRG[dP]) (disulfide 8-13, 4-17) [Example 160]
QUANTITY_MEASURED: IC50 (nM) Ca2+ assay (method 2)
RECORDED_NUMBER: 0.38
--
BINDER: cyclo(YR[Cit]CRG[dP]RR[2Nal]CYAK[dP]P) (disulfide 4-11; SMILES C[C@@H]1NC(=O)[C@H](Cc2ccc(O)cc2)NC(=O)[C@@H]2CSSC[C@H](NC(=O)[C@H](CCCNC(N)=O)NC(=O)[C@H](CCCNC(=N)N)NC(=O)[C@H](Cc3ccc(O)cc3)NC(=O)[C@@H]3CCCN3C(=O)[C@H]3CCCN3C(=O)[C@H](CCCCN)NC1=O)C(=O)N[C@@H](CCCNC(=N)N)C(=O)NCC(=O)N1CCC[C@@H]1C(=O)N[C@@H](CCCNC(=N)N)C(=O)N[C@@H](CCCNC(=N)N)C(=O)N[C@@H](Cc1ccc3ccccc3c1)C(=O)N2) [Example 80]
QUANTITY_MEASURED: IC50 (nM) Ca2+ assay (method 2)
RECORDED_NUMBER: 2.9
--
BINDER: cyclo(YR[Cit]CRG[dP]RR[2Nal]CY[Sar]K[dP]P) (disulfide 4-11; SMILES CN1CC(=O)N[C@@H](CCCCN)C(=O)N2CCC[C@@H]2C(=O)N2CCC[C@H]2C(=O)N[C@@H](Cc2ccc(O)cc2)C(=O)N[C@@H](CCCNC(=N)N)C(=O)N[C@@H](CCCNC(N)=O)C(=O)N[C@H]2CSSC[C@H](NC(=O)[C@H](Cc3ccc4ccccc4c3)NC(=O)[C@H](CCCNC(=N)N)NC(=O)[C@H](CCCNC(=N)N)NC(=O)[C@H]3CCCN3C(=O)CNC(=O)[C@H](CCCNC(=N)N)NC2=O)C(=O)N[C@@H](Cc2ccc(O)cc2)C1=O) [Example 129]
QUANTITY_MEASURED: IC50 (nM) Ca2+ assay (method 2)
RECORDED_NUMBER: 10.9
